# credit: patent US8268823B2

inhibition at 10 µM values, listed per item
SUBJECT_OF_TEST: hERG potassium channel (Homo sapiens)
ASSAY_EXPLANATION: in vitro
Kindly provide the numeric value in % only, without the unit symbol.

The value of inhibition at 10 µM measured for the molecule `C=CCn1nc(-c2cccc(Cl)c2Cl)c(N)nc1=N` turned out to be 50

inhibition at 10 µM reported for this molecule `CCCn1nc(-c2cc(Cl)cc(Cl)c2Cl)c(N)nc1=N` : 62

For reference, reported inhibition at 10 µM for `N=c1nc(N)c(-c2cccc(Cl)c2Cl)nn1Cc1cccc(F)c1F` stands at 84

Lab note: measured inhibition at 10 µM of `N=c1nc(N)c(-c2cccc(Cl)c2Cl)nn1Cc1cccc(F)c1` was 83

// field: inhibition at 10 µM; key: `Nc1nnc(-c2cc(Cl)cc(Cl)c2Cl)c(N)n1` ; value = 13

// field: inhibition at 10 µM; key: `Cn1nc(-c2cccc(Cl)c2Cl)c(N)nc1=N` ; value = 12

Reported inhibition at 10 µM ( `Cn1nc(-c2cc(Cl)cc(Cl)c2Cl)c(N)nc1=N` ) = 33

Measured inhibition at 10 µM of `N=c1nc(N)c(-c2cccc(Cl)c2Cl)nn1Cc1ccsc1` : 83

response.value for `N=c1nc(N)c(-c2cccc(Cl)c2Cl)nn1CCC(F)(F)F` (field: inhibition at 10 µM) = 40

Consider `COc1cccc(Cn2nc(-c3cccc(Cl)c3Cl)c(N)nc2=N)c1` . Its measured inhibition at 10 µM is 87

* * *

SUBJECT_OF_TEST: DiHydroFolate Reductase (DHFR) (Rattus norvegicus)
Construct: from tissue; host or cells: rat liver homogenate supernatant (47,500 x g)
Sequence (Q920D2 whole entry): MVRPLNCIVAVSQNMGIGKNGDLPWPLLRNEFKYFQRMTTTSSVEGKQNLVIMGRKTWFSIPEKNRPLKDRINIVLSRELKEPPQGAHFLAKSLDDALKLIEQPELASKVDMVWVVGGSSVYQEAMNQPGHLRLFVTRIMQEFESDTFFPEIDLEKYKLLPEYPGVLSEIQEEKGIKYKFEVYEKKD
ASSAY_EXPLANATION: inhibition of binding of [3H]methotrexate to rat liver homogenate supernatant
MEASUREMENT_CONDITIONS: read-out: [3H]methotrexate binding Inhibition (% @ assay conc'n); assay concentration 99 μM
VALUE_TYPE: inhibition at 99 µM (%)
Unit % implied. Number only.

Known results for molecules:
{"RECORD_SMILES": "N=c1nc(N)c(-c2cccc(Cl)c2Cl)nn1CC(N)=O", "SUBJECT_OF_TEST": "DiHydroFolate Reductase (DHFR) (Rattus norvegicus)", "VALUE_TYPE": "inhibition at 99 µM", "REPORTED_VALUE": -3}
{"RECORD_SMILES": "COc1ccc(Cn2nc(-c3cccc(Cl)c3Cl)c(N)nc2=N)cc1", "SUBJECT_OF_TEST": "DiHydroFolate Reductase (DHFR) (Rattus norvegicus)", "VALUE_TYPE": "inhibition at 99 µM", "REPORTED_VALUE": -3}
{"RECORD_SMILES": "Cn1nc(-c2cccc(Cl)c2Cl)c(N)nc1=N", "SUBJECT_OF_TEST": "DiHydroFolate Reductase (DHFR) (Rattus norvegicus)", "VALUE_TYPE": "inhibition at 99 µM", "REPORTED_VALUE": -3}
{"RECORD_SMILES": "COc1cccc(Cn2nc(-c3cccc(Cl)c3Cl)c(N)nc2=N)c1", "SUBJECT_OF_TEST": "DiHydroFolate Reductase (DHFR) (Rattus norvegicus)", "VALUE_TYPE": "inhibition at 99 µM", "REPORTED_VALUE": -5}

Recorded result, `CC(C)n1nc(-c2cccc(Cl)c2Cl)c(N)nc1=N` , inhibition at 99 µM: 0

Looking up `CCCn1nc(-c2cccc(Cl)c2Cl)c(N)nc1=N` , I found its inhibition at 99 µM recorded as 2

* * *

Structures can show the parent of a compound that is named as a salt.
VALUE_TYPE: melting point

{"COMPOUND": "N=c1nc(N)c(-c2cc(Cl)cc(Cl)c2Cl)nn1CCF (as salt: methanesulfonate)", "melting point": "212 to 214 °C"}
{"COMPOUND": "CCn1nc(-c2cc(Cl)cc(Cl)c2)c(N)nc1=N (as salt: methanesulfonate)", "melting point": "217 to 219 °C"}
{"COMPOUND": "CCn1nc(-c2cc(Cl)cc(Cl)c2Cl)c(N)nc1=N", "melting point": "269 to 271 °C"}
{"COMPOUND": "Nc1nnc(-c2cc(Cl)cc(Cl)c2)c(N)n1", "melting point": "223 to 225 °C"}
{"COMPOUND": "CCn1nc(-c2ccccc2)c(N)nc1=N (as salt: methanesulfonate)", "melting point": "230 to 232 °C"}
{"COMPOUND": "Nc1nnc(-c2cc(Cl)ccc2Cl)c(N)n1", "melting point": "228 to 230 °C"}

// recorded melting point for Cn1nc(-c2ccccc2)c(N)nc1=N (as salt: methanesulfonate) : 230 to 232 °C

`Nc1nnc(-c2ccccc2OC(F)(F)F)c(N)n1` has a reported melting point of 148 to 150 °C

The compound identified as CCn1nc(-c2cc(Cl)ccc2Cl)c(N)nc1=N (as salt: methanesulfonate) registered its melting point at 264 to 265 °C

melting point in this record for Cn1nc(-c2cc(Cl)ccc2Cl)c(N)nc1=N (as salt: methanesulfonate) : 297 to 298 °C

The recorded melting point for entry `COc1ccc(Cn2nc(-c3cccc(Cl)c3Cl)c(N)nc2=N)cc1` equals 212 to 215 °C

* * *

SUBJECT_OF_TEST: hERG potassium channel (Homo sapiens, UniProt Q12809)
Sequence (Q12809 whole entry): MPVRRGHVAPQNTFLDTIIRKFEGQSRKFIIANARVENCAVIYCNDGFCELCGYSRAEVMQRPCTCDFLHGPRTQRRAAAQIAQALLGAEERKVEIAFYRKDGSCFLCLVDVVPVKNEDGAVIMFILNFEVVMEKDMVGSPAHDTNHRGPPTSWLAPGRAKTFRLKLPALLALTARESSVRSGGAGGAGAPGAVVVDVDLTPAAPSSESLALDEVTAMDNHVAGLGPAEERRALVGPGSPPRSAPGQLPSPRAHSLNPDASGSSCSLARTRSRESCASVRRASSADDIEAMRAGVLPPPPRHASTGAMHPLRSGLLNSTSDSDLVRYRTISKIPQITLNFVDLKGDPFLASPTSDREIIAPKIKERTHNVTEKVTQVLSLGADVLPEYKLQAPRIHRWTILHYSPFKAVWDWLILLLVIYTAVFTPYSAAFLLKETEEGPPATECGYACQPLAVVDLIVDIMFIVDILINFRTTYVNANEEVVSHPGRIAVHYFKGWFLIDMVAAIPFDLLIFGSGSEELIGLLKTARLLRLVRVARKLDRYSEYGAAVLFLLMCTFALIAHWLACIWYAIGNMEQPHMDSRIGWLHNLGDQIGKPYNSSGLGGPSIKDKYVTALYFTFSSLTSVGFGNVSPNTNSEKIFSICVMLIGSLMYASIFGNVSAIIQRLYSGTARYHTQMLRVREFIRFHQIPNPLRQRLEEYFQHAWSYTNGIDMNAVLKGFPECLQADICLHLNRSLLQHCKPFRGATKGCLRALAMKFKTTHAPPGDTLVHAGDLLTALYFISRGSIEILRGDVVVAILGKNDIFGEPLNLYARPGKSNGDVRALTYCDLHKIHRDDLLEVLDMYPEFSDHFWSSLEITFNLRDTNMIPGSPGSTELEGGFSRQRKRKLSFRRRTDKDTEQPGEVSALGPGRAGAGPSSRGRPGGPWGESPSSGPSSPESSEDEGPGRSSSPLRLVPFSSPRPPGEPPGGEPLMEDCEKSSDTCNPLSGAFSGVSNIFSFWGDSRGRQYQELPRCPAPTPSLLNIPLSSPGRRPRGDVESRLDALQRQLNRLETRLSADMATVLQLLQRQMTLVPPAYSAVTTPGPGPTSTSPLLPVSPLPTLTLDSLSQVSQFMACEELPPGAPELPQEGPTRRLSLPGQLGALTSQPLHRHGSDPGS
ASSAY_EXPLANATION: in vitro
VALUE_TYPE: inhibition at 10 µM (%)
Give the value, in units of %, as a plain number.

Looking up N=c1nc(N)c(-c2cccc(Cl)c2Cl)nn1Cc1ccccc1C(F)(F)F [Example 23] , I found its inhibition at 10 µM recorded as 90

Measured inhibition at 10 µM, Cn1nc(-c2cccc(Cl)c2F)c(N)nc1=N [Example 36] : 33

The compound CCCn1nc(-c2cccc(Cl)c2Cl)c(N)nc1=N [Example 6] showed inhibition at 10 µM equal to 78

For reference, reported inhibition at 10 µM for N=c1nc(N)c(-c2cccc(Cl)c2Cl)nn1Cc1cccc(C(F)(F)F)c1 [Example 24] stands at 94

What the record says about COc1ccccc1Cn1nc(-c2cccc(Cl)c2Cl)c(N)nc1=N [Example 17] : inhibition at 10 µM is 84

Entry N=c1nc(N)c(-c2cccc(Cl)c2Cl)nn1CC1CCNCC1 [Example 38] ; inhibition at 10 µM = 80

Lab note: measured inhibition at 10 µM of N=c1nc(N)c(-c2cccc(Cl)c2Cl)nn1Cc1ccoc1 [Example 30] was 65

response.value for N=c1nc(N)c(-c2cccc(Cl)c2Cl)nn1Cc1ccccc1F [Example 14] (field: inhibition at 10 µM) = 80

* * *

SUBJECT_OF_TEST: UniProtKB Q12809
ASSAY_EXPLANATION: inhibition of binding of [3H]astemizole to cell membranes expressing hERG
Parameter: log10(IC50). Scope: all listed entries.
Heads up: the numbers are on a log10 scale; they represent IC50 in nM.

Record excerpt, results attached:
{"COMPOUND": "CCCn1nc(-c2cc(Cl)cc(Cl)c2Cl)c(N)nc1=N", "log10(IC50)": 3.79}
{"COMPOUND": "CN1CCN(c2ncc(-c3cc(Cl)cc(Cl)c3Cl)c(N)n2)CC1 [Sipatrigine, reference compound]", "log10(IC50)": 3.18}

Per the record, `N=c1nc(N)c(-c2cccc(Cl)c2Cl)nn1Cc1ccoc1` has log10(IC50) of 3.73

Entry `Cn1nc(-c2cc(Cl)cc(Cl)c2Cl)c(N)nc1=N` , log10(IC50) reported as 4.31

Measured log10(IC50) of `N=c1nc(N)c(-c2cccc(Cl)c2Cl)nn1Cc1cccc(F)c1` : 3.30

* * *

SUBJECT_OF_TEST: DiHydroFolate Reductase (DHFR) (Rattus norvegicus)
Construct: from tissue; host or cells: rat liver homogenate supernatant (47,500 x g)
ASSAY_EXPLANATION: inhibition of binding of [3H]methotrexate to rat liver homogenate supernatant
MEASUREMENT_CONDITIONS: read-out: [3H]methotrexate binding Inhibition (% @ assay conc'n); assay concentration 99 μM
VALUE_TYPE: inhibition at 99 µM (%)
Answer format: numeric, % implied, no suffix.

Example molecules with recorded inhibition at 99 µM:
{"MOLECULE": "N=c1nc(N)c(-c2cccc(Cl)c2Cl)nn1Cc1cccc(F)c1F [Example 13]", "inhibition at 99 µM, %": -4}
{"MOLECULE": "N=c1nc(N)c(-c2cccc(Cl)c2Cl)nn1Cc1ccc(F)cc1 [Example 16]", "inhibition at 99 µM, %": -3}
{"MOLECULE": "N=c1nc(N)c(-c2cccc(Cl)c2Cl)nn1Cc1ccccc1 [Example 9]", "inhibition at 99 µM, %": -4}

The recorded inhibition at 99 µM for entry N=c1nc(N)c(-c2cccc(Cl)c2Cl)nn1Cc1cccc(F)c1 [Example 15] equals -5
